Subject of test: MATE2‐K (Homo sapiens)
Sequence (Q86VL8 1-566 isoform Q86VL8-3): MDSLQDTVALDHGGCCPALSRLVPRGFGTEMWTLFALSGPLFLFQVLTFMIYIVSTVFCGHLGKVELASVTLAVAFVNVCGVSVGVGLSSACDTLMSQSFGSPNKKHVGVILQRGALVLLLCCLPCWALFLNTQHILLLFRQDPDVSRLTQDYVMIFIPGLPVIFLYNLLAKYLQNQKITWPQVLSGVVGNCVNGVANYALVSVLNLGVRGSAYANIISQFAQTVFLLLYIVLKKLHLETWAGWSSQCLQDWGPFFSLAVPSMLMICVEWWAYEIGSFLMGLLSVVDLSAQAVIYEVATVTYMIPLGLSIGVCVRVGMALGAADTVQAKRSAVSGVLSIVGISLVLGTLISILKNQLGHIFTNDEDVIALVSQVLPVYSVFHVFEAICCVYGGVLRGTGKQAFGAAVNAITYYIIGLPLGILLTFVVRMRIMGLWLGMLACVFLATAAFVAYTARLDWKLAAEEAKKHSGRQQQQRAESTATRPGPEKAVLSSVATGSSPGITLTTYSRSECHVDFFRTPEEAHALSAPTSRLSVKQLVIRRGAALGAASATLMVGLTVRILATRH
Assay type: cell-based
Test context: In vitro Ki of pyrimethamine, substrate m1A 100 μM, 30 min, HEK293
Observed property: pKi
Answers are plain numbers, as −log10 of the molar value.

What value of pKi has been recorded for this entry: CCc1nc(N)nc(N)c1-c1ccc(Cl)cc1 [pyrimethamine]
7.17

---

Subject of test: OAT1 (Homo sapiens, UniProt Q4U2R8)
Sequence (Q4U2R8 whole entry): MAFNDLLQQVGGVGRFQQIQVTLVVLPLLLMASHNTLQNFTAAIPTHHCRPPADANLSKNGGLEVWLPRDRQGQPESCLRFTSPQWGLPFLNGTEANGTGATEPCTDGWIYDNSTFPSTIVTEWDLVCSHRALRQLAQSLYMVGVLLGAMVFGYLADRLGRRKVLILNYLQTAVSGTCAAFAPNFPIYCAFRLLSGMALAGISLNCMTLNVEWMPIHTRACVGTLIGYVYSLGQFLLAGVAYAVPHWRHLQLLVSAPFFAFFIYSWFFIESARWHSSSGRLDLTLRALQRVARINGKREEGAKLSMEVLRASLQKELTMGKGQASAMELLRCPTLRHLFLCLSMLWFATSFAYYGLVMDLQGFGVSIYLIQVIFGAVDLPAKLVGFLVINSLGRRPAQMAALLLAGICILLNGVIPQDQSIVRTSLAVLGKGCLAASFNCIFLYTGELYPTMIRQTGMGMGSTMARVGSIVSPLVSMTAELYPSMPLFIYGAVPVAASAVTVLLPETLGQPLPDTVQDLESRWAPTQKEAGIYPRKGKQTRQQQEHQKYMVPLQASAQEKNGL
Experiment description: Inhibition of PAH uptake in OAT1-expressing HEK293 cells
Observed property: pIC50
Give bare numbers, as −log10 of the molar value.

What value of pIC50 has been recorded for this entry: `CCc1nc(N)nc(N)c1-c1ccc(Cl)cc1`
3.62

---

Subject of test: MATE1 (Homo sapiens)
Sequence (Q96FL8 whole entry): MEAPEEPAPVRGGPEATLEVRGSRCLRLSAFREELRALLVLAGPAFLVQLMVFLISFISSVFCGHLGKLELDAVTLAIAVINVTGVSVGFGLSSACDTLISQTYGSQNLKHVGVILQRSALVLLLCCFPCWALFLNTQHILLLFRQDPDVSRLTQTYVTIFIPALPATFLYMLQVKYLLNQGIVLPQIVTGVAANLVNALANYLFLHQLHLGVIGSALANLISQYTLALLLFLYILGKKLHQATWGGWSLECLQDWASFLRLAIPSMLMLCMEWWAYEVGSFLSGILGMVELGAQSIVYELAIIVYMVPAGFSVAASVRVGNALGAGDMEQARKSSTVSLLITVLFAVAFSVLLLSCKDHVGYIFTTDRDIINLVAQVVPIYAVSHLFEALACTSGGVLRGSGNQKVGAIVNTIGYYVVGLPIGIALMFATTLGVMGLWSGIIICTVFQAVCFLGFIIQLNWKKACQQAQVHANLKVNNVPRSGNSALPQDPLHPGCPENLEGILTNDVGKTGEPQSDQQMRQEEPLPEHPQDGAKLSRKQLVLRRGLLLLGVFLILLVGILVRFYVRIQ
Type: cell-based
Test context: In vitro Ki of pyrimethamine, MATE1, substrate metformin 10 μM, 2 min, HEK293
Observed property: pKi
Numbers only, as −log10 of the molar value.

What value of pKi has been recorded for this entry: `CCc1nc(N)nc(N)c1-c1ccc(Cl)cc1`
6.81

---

Subject of test: OAT3 (Homo sapiens, UniProt Q8TCC7)
Sequence (Q8TCC7 whole entry): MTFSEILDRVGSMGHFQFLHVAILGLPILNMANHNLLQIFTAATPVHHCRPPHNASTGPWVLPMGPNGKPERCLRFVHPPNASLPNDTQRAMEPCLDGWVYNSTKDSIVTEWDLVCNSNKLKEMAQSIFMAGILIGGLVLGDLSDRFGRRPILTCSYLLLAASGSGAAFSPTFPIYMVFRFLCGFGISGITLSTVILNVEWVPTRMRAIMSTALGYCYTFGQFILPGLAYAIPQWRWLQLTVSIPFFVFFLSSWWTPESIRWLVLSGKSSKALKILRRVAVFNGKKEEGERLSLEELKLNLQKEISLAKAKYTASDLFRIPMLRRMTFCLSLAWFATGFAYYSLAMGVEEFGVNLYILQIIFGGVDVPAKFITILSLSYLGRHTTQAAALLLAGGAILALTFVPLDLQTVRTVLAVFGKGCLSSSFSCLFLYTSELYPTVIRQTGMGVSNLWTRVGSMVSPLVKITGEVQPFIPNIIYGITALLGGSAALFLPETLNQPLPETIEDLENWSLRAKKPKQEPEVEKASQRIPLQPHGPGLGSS
Experiment description: Inhibition of ES uptake in OAT3-expressing HEK293 cells
Observed property: IC50
I'd appreciate it if you wrote the number followed by its unit.

Recall the recorded IC50 for `CCc1nc(N)nc(N)c1-c1ccc(Cl)cc1` with OAT3 (Homo sapiens, UniProt Q8TCC7) and state it.
9.69 µM

---

Subject of test: OCT2 (Homo sapiens)
Sequence (O15244 1-555): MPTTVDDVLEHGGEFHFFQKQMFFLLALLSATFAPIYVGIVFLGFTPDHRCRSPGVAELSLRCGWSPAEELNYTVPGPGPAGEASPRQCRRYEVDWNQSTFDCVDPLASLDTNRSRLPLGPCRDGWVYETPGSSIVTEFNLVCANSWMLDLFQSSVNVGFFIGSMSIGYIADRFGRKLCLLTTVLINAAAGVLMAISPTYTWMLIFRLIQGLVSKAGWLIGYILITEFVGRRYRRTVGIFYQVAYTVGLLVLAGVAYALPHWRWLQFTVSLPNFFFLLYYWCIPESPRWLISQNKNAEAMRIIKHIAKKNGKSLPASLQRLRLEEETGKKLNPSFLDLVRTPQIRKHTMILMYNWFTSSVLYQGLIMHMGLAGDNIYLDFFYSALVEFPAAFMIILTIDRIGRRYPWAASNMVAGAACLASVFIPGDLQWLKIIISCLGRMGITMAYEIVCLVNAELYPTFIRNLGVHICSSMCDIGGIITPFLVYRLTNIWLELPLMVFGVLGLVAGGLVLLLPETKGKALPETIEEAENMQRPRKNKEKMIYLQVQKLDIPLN
Type: cell-based
Test context: In vitro Ki of pyrimethamine, OCT2, substrate 1‐NMN 10 μM, 2 min, HEK293
Observed property: Ki
I'd appreciate it if you wrote the number followed by its unit.

Recall the recorded Ki for `CCc1nc(N)nc(N)c1-c1ccc(Cl)cc1` with OCT2 (Homo sapiens) and state it.
41.2 µM

---

Subject of test: OCT2 (Homo sapiens)
Type: cell-based
Test context: In vitro Ki of pyrimethamine, OCT2, substrate metformin 10 μM, 2 min, HEK293
Observed property: Ki (µM)
Numbers only, in µM.

Recall the recorded Ki for `CCc1nc(N)nc(N)c1-c1ccc(Cl)cc1` with OCT2 (Homo sapiens) and state it.
37.9
